Each recorded value in this set is attributed to the supplement of paper PMC8253809.

# Tested on: iAstro (astrocyte control)
# assay_comment: maximal growth inhibition (yFin) relative to DMSO / staurosporine; higher = more efficacious
Quick rule: maximal growth inhibition of at least 80% means Met, below that means Not met.

Does the reported maximal growth inhibition for `CC(=O)Nc1cccc(-n2c(=O)n(C3CC3)c(=O)c3c(Nc4ccc(I)cc4F)n(C)c(=O)c(C)c32)c1` fall at or above the 80% mark?
Not met

Does the reported maximal growth inhibition for `Cc1ccc2nc(NCCN)c3ncc(C)n3c2c1` fall at or above the 80% mark?
Not met

Does the reported maximal growth inhibition for `CC(C)N(CCCNC(=O)Nc1ccc(C(C)(C)C)cc1)C[C@H]1O[C@@H](n2cc(Br)c3c(N)ncnc32)[C@H](O)[C@@H]1O` fall at or above the 80% mark?
Not met

Does the reported maximal growth inhibition for `CO[C@H]1C[C@@H]2CC[C@@H](C)[C@@](O)(O2)C(=O)C(=O)N2CCCC[C@H]2C(=O)O[C@H]([C@H](C)C[C@@H]2CC[C@@H](OCCO)[C@H](OC)C2)CC(=O)[C@H](C)/C=C(\C)[C@@H](O)[C@@H](OC)C(=O)[C@H](C)C[C@H](C)/C=C/C=C/C=C/1C` fall at or above the 80% mark?
Met

Does the reported maximal growth inhibition for `CC(=O)OC[C@H]1O[C@@H]([S-])[C@H](OC(C)=O)[C@@H](OC(C)=O)[C@@H]1OC(C)=O.CCP(CC)CC.[Au+]` fall at or above the 80% mark?
Met

###

# Tested on: DIPGX29 (H3.3 K27M diffuse intrinsic pontine glioma line)
# assay_comment: area under dose-response curve of % growth inhibition (log2 RLU vs DMSO / staurosporine), 1e-11 to 1e-4 M (% x log10 M); higher = more growth inhibition
Would you mind telling me the reported area under dose-response curve of each entry?

Look at this compound and give its reported area under dose-response curve. Cc1cc(C2CCCCC2)n(O)c(=O)c1 [CICLOPIROX]
138

Look at this compound and give its reported area under dose-response curve. COCC1(CO)C(=O)C2CCN1CC2 (stereo not drawn) [APR-246]
90.6

Look at this compound and give its reported area under dose-response curve. OC1(c2ccc(Cl)c(C(F)(F)F)c2)CCN(CCCC(c2ccc(F)cc2)c2ccc(F)cc2)CC1 [PENFLURIDOL]
135

Look at this compound and give its reported area under dose-response curve. COc1cc(C(=O)N2CC[C@@H](O)[C@@H](N)C2)cc2nc(-c3cc4ccccc4n3CC3CC3)n(C)c12 [GSK-484]
54.6

Look at this compound and give its reported area under dose-response curve. CCNc1nc(Nc2cc(F)c(C(=O)N3CCOCC3)cc2OC)ncc1C(F)(F)F [GNE-7915]
23.5

Look at this compound and give its reported area under dose-response curve. CCN(CCO)CCCC(C)Nc1ccnc2cc(Cl)ccc12 (stereo not drawn) [HYDROXYCHLOROQUINE]
5.15

Look at this compound and give its reported area under dose-response curve. O=c1ncccn1[C@@H]1O[C@H](CO)[C@@H](O)[C@H]1O [ZEBULARINE]
5.5

Look at this compound and give its reported area under dose-response curve. Nc1nc(F)nc2c1ncn2[C@@H]1O[C@H](COP(=O)(O)O)[C@@H](O)[C@@H]1O [FLUDARABINE PHOSPHATE]
32.1

Look at this compound and give its reported area under dose-response curve. Cc1ncc(CNC(=O)N(CCCl)N=O)c(N)n1 [NIMUSTINE]
1.11

Look at this compound and give its reported area under dose-response curve. CC(=O)c1ccc2c(c1)c1cc(C(C)=O)ccc1n2CCNC(C)C [CBL-0137]
135

Look at this compound and give its reported area under dose-response curve. CN(C)C(=O)C(CCN1CCC(O)(c2ccc(Cl)cc2)CC1)(c1ccccc1)c1ccccc1 [LOPERAMIDE]
75.5

Look at this compound and give its reported area under dose-response curve. CCCCc1oc2ccccc2c1C(=O)c1cc(I)c(OCCN(CC)CC)c(I)c1 [AMIODARONE]
63.6

Look at this compound and give its reported area under dose-response curve. N[C@H](CCC(=O)N[C@@H](Cc1c[nH]c2ccccc12)C(=O)O)C(=O)O [GOLOTIMOD]
8.23

Look at this compound and give its reported area under dose-response curve. Cc1ccc(Nc2nccc(N(C)c3ccc4c(C)n(C)nc4c3)n2)cc1S(N)(=O)=O [PAZOPANIB]
14.4

Look at this compound and give its reported area under dose-response curve. CS(=O)(=O)CCNCc1ccc(-c2ccc3ncnc(Nc4ccc(OCc5cccc(F)c5)c(Cl)c4)c3c2)o1 [LAPATINIB]
70.3

Look at this compound and give its reported area under dose-response curve. COc1cc(-c2cn(C)c(=O)c3cnccc23)c(OC)cc1CN(C)C [BI-9564]
12.6

Look at this compound and give its reported area under dose-response curve. COc1cc2c(cc1-c1c(C)noc1C)ncc1[nH]c(=O)n([C@H](C)c3ccccn3)c12 [I-BET151]
31.6

Look at this compound and give its reported area under dose-response curve. O=C(c1ccc(Nc2nccc(-c3cc4ccccc4s3)n2)cc1)N1CCC(N2CCCC2)CC1 [IKK 16]
180

###

# System: HGGX6 (H3.3 G34R paediatric high-grade glioma line)
# assay_comment: area under dose-response curve of % growth inhibition (log2 RLU vs DMSO / staurosporine), 1e-11 to 1e-4 M (% x log10 M); higher = more growth inhibition
recorded_endpoint: area under dose-response curve
Could you keep your reply to the number by itself?

Look at this compound and give its reported area under dose-response curve. O=C1c2c(O)ccc(O)c2C(=O)c2c(NCCNCCO)ccc(NCCNCCO)c21 [MITOXANTHRONE]
112

Look at this compound and give its reported area under dose-response curve. Nc1ccccc1NC(=O)c1ccc(CNc2nccc(-c3cccnc3)n2)cc1 [MOCETINOSTAT]
129

Look at this compound and give its reported area under dose-response curve. COc1cc([C@@H]2c3cc4c(cc3[C@@H](O[C@@H]3O[C@@H]5CO[C@@H](c6cccs6)O[C@H]5[C@H](O)[C@H]3O)[C@H]3COC(=O)[C@H]23)OCO4)cc(OC)c1O [TENIPOSIDE]
42.9

Look at this compound and give its reported area under dose-response curve. `Nc1nccc(-c2c(-c3ccc(F)cc3)ncn2C2CCCCC2)n1`
31.7

###

# Test system: SUDIPGXIII (diffuse intrinsic pontine glioma line)
# assay_comment: area under dose-response curve of % growth inhibition (log2 RLU vs DMSO / staurosporine), 1e-11 to 1e-4 M (% x log10 M); higher = more growth inhibition
Would you mind telling me the reported area under dose-response curve of each entry?
Could you keep your reply to the number by itself?

Look at this molecule and give its reported area under dose-response curve. `O=C(Nc1ccc(Nc2nccc(Nc3cc(C4CCCC4)[nH]n3)n2)cc1)Nc1cccc(C(F)(F)F)c1`
235

Look at this molecule and give its reported area under dose-response curve. `C=CCn1c(=O)c2cnc(Nc3ccc(N4CCN(C)CC4)cc3)nc2n1-c1cccc(C(C)(C)O)n1`
15

Look at this molecule and give its reported area under dose-response curve. `CO[C@H]1C(=O)[C@]2(C)[C@@H](OC)C[C@H]3OC[C@@]3(OC(C)=O)[C@H]2[C@H](OC(=O)c2ccccc2)[C@]2(O)C[C@H](OC(=O)[C@H](O)[C@@H](NC(=O)OC(C)(C)C)c3ccccc3)C(C)=C1C2(C)C`
29.9

Look at this molecule and give its reported area under dose-response curve. `C[C@@]12OC(=O)[C@]1([C@@H](O)[C@@H]1C=CCCC1)NC(=O)[C@@H]2CCCl`
75.8

Look at this molecule and give its reported area under dose-response curve. `CC1=C(/C=C/C(C)=C/C=C/C(C)=C/C(=O)O)C(C)(C)CCC1`
0

Look at this molecule and give its reported area under dose-response curve. NC1CCC(Nc2cc(-c3cccc(NCc4cccc(F)c4)n3)c(Cl)cn2)CC1 (configuration not stated)
167

Look at this molecule and give its reported area under dose-response curve. `Cn1cnc([N+](=O)[O-])c1Sc1ncnc2[nH]cnc12`
38.7

###

# Test system: SUDIPGXVII (diffuse intrinsic pontine glioma line)
# assay_comment: EC50 (inflection of fitted growth-inhibition curve) (log10 M)
Each record is given met if its reported EC50 (log10 M) is strictly below -7. Records at or above -7 are given not met.

Confirm or reject: EC50 (log10 M) of COc1cccc2c1C(=O)c1c(O)c3c(c(O)c1C2=O)C[C@@](O)(C(=O)CO)C[C@@H]3O[C@H]1C[C@H](N)[C@H](O)[C@H](C)O1 [DOXORUBICIN] lies strictly below -7
not met

Confirm or reject: EC50 (log10 M) of `Cc1ccc2nc(NCCN)c3ncc(C)n3c2c1` lies strictly below -7
not met

Confirm or reject: EC50 (log10 M) of CO[C@H]1C[C@@H]2CC[C@@H](C)[C@@](O)(O2)C(=O)C(=O)N2CCCC[C@H]2C(=O)O[C@H]([C@H](C)C[C@@H]2CC[C@@H](OC(=O)C(C)(CO)CO)[C@H](OC)C2)CC(=O)[C@H](C)/C=C(\C)[C@@H](O)[C@@H](OC)C(=O)[C@H](C)C[C@H](C)/C=C/C=C/C=C/1C [TEMSIROLIMUS] lies strictly below -7
not met

Confirm or reject: EC50 (log10 M) of COc1ccc(-c2nc(N3CCOCC3)c3sc(CN(C)c4ncc(C(=O)NO)cn4)cc3n2)cn1 [CUDC-907] lies strictly below -7
not met

Confirm or reject: EC50 (log10 M) of Cc1c(C2CCN(CCc3ccccc3)CC2)noc1-c1ccc(Cl)cc1 [L-741,742] lies strictly below -7
not met

Confirm or reject: EC50 (log10 M) of CCNC(=O)c1noc(-c2cc(C(C)C)c(O)cc2O)c1-c1ccc(CN2CCOCC2)cc1 [NVP-AUY922] lies strictly below -7
met
